# system_tested: Vitamin D3 receptor (Sus scrofa) (UniProt A3RGC1)
# Sequence (A3RGC1 whole entry): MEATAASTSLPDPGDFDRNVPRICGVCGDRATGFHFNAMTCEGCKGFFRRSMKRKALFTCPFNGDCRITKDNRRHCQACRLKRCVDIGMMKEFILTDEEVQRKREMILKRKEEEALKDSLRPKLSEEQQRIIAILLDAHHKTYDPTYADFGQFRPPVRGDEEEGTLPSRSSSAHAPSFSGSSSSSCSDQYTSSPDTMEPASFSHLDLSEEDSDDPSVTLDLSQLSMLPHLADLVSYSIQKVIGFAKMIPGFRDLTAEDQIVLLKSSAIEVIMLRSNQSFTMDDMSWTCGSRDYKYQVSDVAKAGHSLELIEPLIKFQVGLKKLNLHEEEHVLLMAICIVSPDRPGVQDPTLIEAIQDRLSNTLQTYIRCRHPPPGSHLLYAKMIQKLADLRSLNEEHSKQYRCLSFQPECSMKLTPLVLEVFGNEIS
# experiment_summary: Displacement of 50% binding of [3H]alpha,25 (OH)2D3 from pig intestinal mucosa Vitamin D3 receptor
Below, each entry is listed alongside its reported Relative affinity.
recorded_metric: Relative affinity

compound	assay_result
C=C1C(=CC=C[C@@H]2CC[C@](C)([C@H](C)CC(C)CC#CC(C)(C)O)C2(C)C)C[C@@H](O)C[C@@H]1O (stereo partly drawn)	60
C=C1C(=CC=C[C@@H]2CC[C@](C)([C@H](C)CC(C)CCCC(C)(C)O)C2(C)C)C[C@@H](O)C[C@@H]1O (stereo partly drawn)	6
CC(CCCC(C)(C)O)C[C@@H](C)[C@@]1(C)CC[C@@H](/C=C/C=C2C[C@@H](O)C[C@H](O)C2)C1(C)C (stereo partly drawn)	3
C=C1C(=CC=C[C@@H]2CC[C@](C)([C@H](C)CC(C)CCCC(O)(C(F)(F)F)C(F)(F)F)C2(C)C)C[C@@H](O)C[C@@H]1O (stereo partly drawn)	30
C=C1C(=CC=C[C@@H]2CC[C@](C)([C@@H](C)CC(C)CCCC(C)(C)O)C2(C)C)C[C@@H](O)C[C@@H]1O (stereo partly drawn)	85
CCC(O)(CC)CCCC(C)C[C@@H](C)[C@@]1(C)CC[C@@H](/C=C/C=C2C[C@@H](O)C[C@H](O)C2)C1(C)C (stereo partly drawn)	10
CCC(O)(C#CCC(C)C[C@@H](C)[C@@]1(C)CC[C@@H](/C=C/C=C2C[C@@H](O)C[C@H](O)C2)C1(C)C)CC (stereo partly drawn)	50
CC(CC#CC(O)(C(F)(F)F)C(F)(F)F)C[C@@H](C)[C@@]1(C)CC[C@@H](/C=C/C=C2C[C@@H](O)C[C@H](O)C2)C1(C)C (stereo partly drawn)	50
C=C1C(=CC=C[C@@H]2CC[C@](C)([C@H](C)CC(C)CC#CC(O)(CC)CC)C2(C)C)C[C@@H](O)C[C@@H]1O (stereo partly drawn)	80
C=C1C(=CC=C[C@@H]2CC[C@](C)([C@H](C)CC(C)CCCC(O)(CC)CC)C2(C)C)C[C@@H](O)C[C@@H]1O (stereo partly drawn)	50
CC(CC#CC(C)(C)O)C[C@@H](C)[C@@]1(C)CC[C@@H](/C=C/C=C2C[C@@H](O)C[C@H](O)C2)C1(C)C (stereo partly drawn)	7
C=C1C(=CC=C[C@@H]2CC[C@](C)([C@H](C)CC(C)CC#CC(O)(C(F)(F)F)C(F)(F)F)C2(C)C)C[C@@H](O)C[C@@H]1O (stereo partly drawn)	60
CC(CCCC(O)(C(F)(F)F)C(F)(F)F)C[C@@H](C)[C@@]1(C)CC[C@@H](/C=C/C=C2C[C@@H](O)C[C@H](O)C2)C1(C)C (stereo partly drawn)	9
